Molecular target: regulatory RIIα subunits of PKA (Homo sapiens)
Construct: Prof; Dr. Friedrich W. Herberg, University of Kassel, Germany (obtained from an academic laboratory, not a vendor)
Sequence (P13861 whole entry): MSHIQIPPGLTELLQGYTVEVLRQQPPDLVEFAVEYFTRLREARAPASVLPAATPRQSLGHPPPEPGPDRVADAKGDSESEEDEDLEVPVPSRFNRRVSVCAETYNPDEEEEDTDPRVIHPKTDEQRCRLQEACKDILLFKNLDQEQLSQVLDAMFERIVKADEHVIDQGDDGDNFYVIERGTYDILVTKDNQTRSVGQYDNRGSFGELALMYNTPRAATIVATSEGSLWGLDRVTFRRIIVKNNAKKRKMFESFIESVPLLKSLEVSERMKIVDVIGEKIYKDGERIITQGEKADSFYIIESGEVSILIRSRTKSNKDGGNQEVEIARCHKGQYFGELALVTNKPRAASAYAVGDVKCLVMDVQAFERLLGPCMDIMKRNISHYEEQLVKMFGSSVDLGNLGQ
Experiment: RII overlay of membrane-bound (SPOT) peptides, radiolabelled RIIα as probe, densitometry
Type: binding
Conditions: human RIIα as probe; in words
property: binding to RIIα subunits in RII overlay

Would you please look over these solved cases?
ANDARLVRLSKRLRENAVLKAVQQY [A18δRIIα Hs1]    binding to RIIα
ANDARLVRLPKRLVENAVLKAVQQY [10/12]    bind RIIα
ANDARLVRLNKRLVENAVLKAVQQY [10/11]    bind RIIα
PEDAELVRLSKRDVENAVLKAVQQY [AKAP18δ-L308D]    weaker
ANDARLVRLSKRLYENAVLKAVQQY [A18δRIIα Hs2]    binding to RIIα

Entry EPEDAELVRLSKRLVENAVLKAVQQYLEETQ (listed as Homo sapiens) [AKAP18δ-RI] : reported binding to RIIα subunits in RII overlay = ?
weaker
